The entries below are paired with their reported pIC50.
- System: Pim-2 stably transfected into the U2OS human osteogenic sarcoma line (Homo sapiens)
- Construct: expressed in transfected cells; host or cells: U2OS human osteogenic sarcoma line
- Sequence (Q9P1W9 whole entry): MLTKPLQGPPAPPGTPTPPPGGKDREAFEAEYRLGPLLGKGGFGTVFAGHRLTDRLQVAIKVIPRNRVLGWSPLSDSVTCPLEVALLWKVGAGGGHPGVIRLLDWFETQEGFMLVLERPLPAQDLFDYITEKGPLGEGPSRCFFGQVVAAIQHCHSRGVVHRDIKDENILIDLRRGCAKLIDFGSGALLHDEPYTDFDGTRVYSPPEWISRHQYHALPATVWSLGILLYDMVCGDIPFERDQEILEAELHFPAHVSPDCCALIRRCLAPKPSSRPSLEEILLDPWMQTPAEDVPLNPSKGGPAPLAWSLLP
- Test: Pim cell assay, phospho-BAD normalized against total BAD, U2OS stably transfected with Pim-2
- Assay type: cell-based
- Experimental Setup: U2OS stably transfected with Pim-2; phospho-BAD normalized against total BAD; 29 min incubation; read-out: Pim2_Cell_IC50_
pIC50: −log10 of the molar value.

See these solved cases before continuing.
INSERT INTO measurements (query_smiles, system, meas_value) VALUES
  ('Nc1ccc(-c2ccc3[nH]cc(-c4cncc(O[C@@H]5CCCNC5)n4)c3c2)cc1OC(F)(F)F', 'Pim-2 stably transfected into the U2OS human osteogenic sarcoma line (Homo sapiens)', '< 4.80'),
  ('COc1cncc(-c2n[nH]c3ccc(-c4cncc(NC5CC5)n4)cc23)n1', 'Pim-2 stably transfected into the U2OS human osteogenic sarcoma line (Homo sapiens)', 4.66),
  ('COc1cncc(-c2n[nH]c3ccc(-c4cncc(C5CC5)n4)cc23)n1', 'Pim-2 stably transfected into the U2OS human osteogenic sarcoma line (Homo sapiens)', '< 4.50');

Let's switch to this molecule now.
// query pIC50 value for entry "NC1CCN(c2cncc(-c3c[nH]c4ccc(-c5cncc(NC6CC6)n5)cc34)n2)CC1"
< 4.50

###

- System: full length recombinant Pim-2 protein (Homo sapiens, UniProt Q9P1W9)
- Construct: by full length recombinant Pim-1, Pim-2, or Pim-3 protein; hexahistidine tag followed by a thrombin cleavage site (N); made in house; host or cells: Sf9 (baculovirus) or E. coli (pET28)
- Sequence (Q9P1W9 whole entry): as above
- Test: Pim-2 enzyme assay (HTRF, phosphorylation of biotinylated-BAD (S112) peptide)
- Assay type: biochemical
- Experimental Setup: read-out: Pim2_IC50
Experimental Readout: IC50 (µM)

INSERT INTO results (compound, meas_value) VALUES
  ('COc1c(C)cc(-c2ccc3[nH]cc(-c4cncc(O[C@@H]5CCCNC5)n4)c3c2)cc1C [Example 331]', 0.111),
  ('C[C@@H]1CN(c2ccc3[nH]nc(-c4cncc(O[C@H]5CNCCC56CC6)n4)c3c2)CCO1 [Example 401]', 0.058),
  ('CC(C)Nc1nnc(-c2c[nH]c3ccc(-c4cncc(OC(C)C)n4)cc23)o1 [Example 522]', 0.446),
  ('COc1ccc(Cl)cc1-c1ccc2[nH]cc(-c3cncc(O[C@@H]4CCCNC4)n3)c2c1 [Example 317]', 0.297),
  ('CC(C)Oc1nc(-c2n[nH]c3ccc(-c4c(F)cccc4F)cc23)cc(=O)[nH]1 [Example 528]', 0.036),
  ('COc1ccc(OC)c(-c2ccc3[nH]cc(-c4cncc(O[C@@H]5CCCNC5)n4)c3c2)c1 [Example 329]', 0.514);

[I] CN(C)c1nc(-c2n[nH]c3ccc(Nc4c(F)cccc4F)cc23)cc(=O)[nH]1 [Example 285]
[II] Cc1ccc(C(F)(F)F)cc1-c1ccc2[nH]cc(-c3cncc(O[C@@H]4CCCNC4)n3)c2c1 [Example 353]
[III] Fc1cccc(F)c1-c1ccc2[nH]nc(-c3cncc(OC4CNCC5CC54)n3)c2c1 (stereo not drawn) [Example 452]
[IV] CC(=O)Nc1ccc(-c2ccc3[nH]cc(-c4cncc(O[C@@H]5CCCNC5)n4)c3c2)cc1 [Example 327]
[V] Fc1cccc(F)c1-c1ccc2[nH]nc(-c3cncc(OC4C=CCNC4)n3)c2c1 (single isomer, unassigned) [Example 426]
Would you mind ranking these compounds by ascending IC50? Answer format: the labels, in the requested order.
IV, I, III, V, II

[I] CC(C)Oc1cccc(-c2ccc3[nH]cc(-c4cncc(O[C@@H]5CCCNC5)n4)c3c2)c1 [Example 360]
[II] CC1CNCC(Oc2nc(O)cc(-c3n[nH]c4ccc(-c5c(F)cccc5F)cc34)n2)C1 (single isomer, unassigned) [Example 568]
Between I and II , which one shows the smaller IC50 number? When you have decided, please share the label of that item.
II
(II: 0.021 µM, I: 0.094 µM)

###

- System: full length recombinant Pim-2 protein (Homo sapiens)
- Construct: by full length recombinant Pim-1, Pim-2, or Pim-3 protein; hexahistidine tag followed by a thrombin cleavage site (N); made in house; host or cells: Sf9 (baculovirus) or E. coli (pET28)
- Test: Pim-2 enzyme assay (HTRF, phosphorylation of biotinylated-BAD (S112) peptide)
- Format: biochemical
- Experimental Setup: read-out: Pim2_IC50
- Protocol: These cDNAs were used as templates in PCR reactions to produce full-length DNA clones of the PIMs. […] This step was repeated 3× and the resin was transferred to a 2.5 cm glass column. […] Fractions were analyzed by SDS-PAGE and those containing the protein of interest were pooled and concentrated. […] The final buffer conditions were as follows: 60 mM Hepes, pH 7.0, 0.05% BSA, 2 mM DTT. […] For each plate, percent of control (POC) values were calculated for each well. […]
Structures can show the parent of a compound that is named as a salt.
Experimental Readout: IC50 (nM)

INSERT INTO results (compound, experimental_readout, meas_value) VALUES
  ('c1ccc(-c2ccc3[nH]cc(-c4cncc(O[C@@H]5CCCNC5)n4)c3c2)cc1', 'IC50', 20),
  ('O=c1cc(-c2n[nH]c3ccc(-c4nccs4)cc23)nc(O[C@@H]2CNCC[C@H]2F)[nH]1 (racemic) [Example 289, trifluoroacetate]', 'IC50', 1),
  ('CC(C)Oc1cncc(-c2ccc3[nH]cc(-c4nnc(N[C@H]5CCCNC5)o4)c3c2)n1', 'IC50', 194);

[1] N#CC1(c2cccc(-c3ccc4[nH]cc(-c5cncc(O[C@@H]6CCCNC6)n5)c4c3)c2)CCC1
[2] COc1cncc(-c2n[nH]c3ccc(-c4nccc(NC5CC5)n4)cc23)n1
[3] COc1cncc(-c2n[nH]c3ccc(-c4cncc(NC5CC5)n4)cc23)n1
[4] COc1cc(N[C@@H]2CCCNC2)nc(-c2c[nH]c3ccc(-c4c(F)cccc4F)cc23)n1
Put the compounds in ascending order of IC50. Please, when replying, give the labels in the order that was requested.
3, 4, 1, 2
(3: 10 nM, 4: 77 nM, 1: 193 nM, 2: 335 nM)

###

- System: full length recombinant Pim-3 protein (Homo sapiens, UniProt Q86V86)
- Construct: by full length recombinant Pim-1, Pim-2, or Pim-3 protein; purchased Millipore (UK)
- Test: Pim-3 enzyme assay (HTRF, phosphorylation of biotinylated-BAD (S112) peptide)
- Assay type: biochemical
- Experimental Setup: read-out: Pim3 IC50
Experimental Readout: IC50 (nM)

Example compounds with recorded IC50:
INSERT INTO results (compound, experimental_readout, meas_value) VALUES
  ('Cn1cc(-c2ccc3[nH]nc(-c4cncc(O[C@@H]5CCCNC5)n4)c3c2)cn1', 'IC50', 3),
  ('Fc1ncc(Cl)cc1-c1ccc2[nH]nc(-c3cncc(O[C@@H]4CCCNC4)n3)c2c1', 'IC50', 5),
  ('NC1CCN(c2cncc(-c3c[nH]c4ccc(NC(=O)c5ccccc5)cc34)n2)CC1', 'IC50', 151),
  ('NC1CCN(c2cncc(-c3c[nH]c4ccc(-c5c(F)cccc5Cl)cc34)n2)CC1 [Example 27, bis(2,2,2-trifluoroacetate)]', 'IC50', 9),
  ('NC1CCN(c2cncc(-c3n[nH]c4ccc(-c5ccccc5Cl)cc34)n2)CC1', 'IC50', 4),
  ('NC1CCN(c2cncc(-c3n[nH]c4ccc(N5CCCC5=O)cc34)n2)CC1', 'IC50', 6),
  ('Fc1cccc(F)c1-c1ccc2[nH]nc(-c3ccnc(O[C@@H]4CCCNC4)n3)c2c1', 'IC50', 36),
  ('NC1CCN(c2cncc(-c3n[nH]c4ccc(-c5ccccc5F)cc34)n2)CC1', 'IC50', 1);

[a] N[C@H]1CCCN(c2cncc(-c3c[nH]c4ccc(-c5c(F)cccc5F)cc34)n2)C1
[b] Fc1cccc(F)c1-c1ccc2[nH]nc(-c3cncc(N4CCCC4)n3)c2c1
[c] Nc1cc(-c2ccc3[nH]nc(-c4cncc(N5CCC(N)CC5)n4)c3c2)ccn1
[d] CN1CCOc2cc(-c3ccc4[nH]nc(-c5cncc(O[C@@H]6CCCNC6)n5)c4c3)cnc21
[e] NC1CCN(c2cncc(-c3n[nH]c4ccc(-c5ccnc6cc(OC(F)(F)F)ccc56)cc34)n2)CC1
Sort by IC50, descending. List labels; respect the requested ordering.
b, e, d, a, c

[A] CN(C)c1cccc(-c2ccc3[nH]nc(-c4cncc(N5CCC(N)CC5)n4)c3c2)c1
[B] NC1CCN(c2cncc(-c3n[nH]c4ccc(-c5cccc(F)n5)cc34)n2)CC1
# returns the entry with the larger IC50; inputs A and B State the label of the item chosen.
A
(A: 6 nM, B: 2 nM)
